From: patent US5658885A

Let's go through some recorded Ki values for UniProt:P00734 together.

Example entries begin here.
>>> df
                                   compound   tested_system  test_result
0  COCCCC(NC(=O)[C@@H]1CCCN1C(=O)[C@@H](Cc1ccccc1)NC(C)C)B1OC2CC3CC(C3(C)C)C2(C)O1 (stereo partly drawn)  UniProt:P00734     < 500 nM
1  CC1(C)C2CC3OB(C(Cc4cccc(C#N)c4)NC(=O)[C@@H]4CCCN4C(=O)/C=C/c4cccnc4)OC3(C)C1C2 (stereo in doubt)  UniProt:P00734     < 500 nM

Proceed to the following item.
Exercise: Reported Ki for UniProt:P00734, given CC(C)(C)OC(=O)NC(Cc1cccs1)C(=O)N1CCCC1C(=O)NC(Cc1cccc(C#N)c1)B1OC2CC3CC(C3(C)C)C2(C)O1 (stereo not drawn) ?
Key: < 500 nM

* * *

biological target: human factor Xa (Homo sapiens, UniProt P00742); construct: 0.2-0.5 nM human thrombin or human factor Xa; purchased Enzyme Research Laboratories, South Bend, Ind; assay: Inhibition of Factor Xa hydrolysis of chromogenic substrate S2222 (Ki); type: biochemical; conditions: S2222, pH 7.5
Sequence (P00742 235-488 limits assumed): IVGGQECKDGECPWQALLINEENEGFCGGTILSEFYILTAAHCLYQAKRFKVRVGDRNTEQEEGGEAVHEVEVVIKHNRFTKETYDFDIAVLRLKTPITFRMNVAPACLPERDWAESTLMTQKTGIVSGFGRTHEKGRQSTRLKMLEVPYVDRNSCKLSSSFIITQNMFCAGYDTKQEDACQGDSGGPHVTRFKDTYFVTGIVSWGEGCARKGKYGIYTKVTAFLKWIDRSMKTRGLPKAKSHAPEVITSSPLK
Sequence (P00742 41-179 limits assumed): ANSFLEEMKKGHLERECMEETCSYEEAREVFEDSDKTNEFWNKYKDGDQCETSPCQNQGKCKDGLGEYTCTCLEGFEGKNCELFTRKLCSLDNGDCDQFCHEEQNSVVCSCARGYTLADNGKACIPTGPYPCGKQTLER
pKi: −log10 of the molar value. Counter-ions that a name gives are not always drawn.
# key: entry, value: pKi

COMPOUND	pKi
CC1(C)C2CC3OB(C(Cc4cccc(C#N)c4)NC(=O)[C@@H]4CCCN4C(=O)[C@H](N)Cc4cccs4)OC3(C)C1C2 (stereo partly drawn)	> 4.30
CC(=O)N[C@H](Cc1ccccc1)C(=O)N1CCC[C@H]1C(=O)N[C@@H](Cc1cccc(C#N)c1)B(O)O [Example 23, Ac--(D)Phe--Pro--boroPhe--(m-CN)--OH.HCl]	> 4.30
CC(=O)NCCCCC(NC(=O)C1CCCN1C(=O)CCc1ccccc1)B1OC2CC3CC(C3(C)C)C2(C)O1 (stereo not drawn)	> 4.30

Exercise: Record request: pKi value, item CC1(C)C2CC3OB(C(Cc4cccc(C#N)c4)NC(=O)C4CCCN4C(=O)C(Cc4cccs4)NS(C)(=O)=O)OC3(C)C1C2 (stereo not drawn)
Key: > 6.30

Exercise: Record request: pKi value, item CN(C)C(Cc1ccccc1)C(=O)N1CCCC1C(=O)NC(Cc1cccc(C#N)c1)B(O)O (single isomer, unassigned; isomer i)
Key: > 6.30

Exercise: Record request: pKi value, item N=CNCCCC(NC(=O)C1CCCN1C(=O)CCc1ccccc1)B(O)O (stereo not drawn)
Key: > 4.30
